Values were extracted from patent EP1117659B1.

Measured IC50 accompanies every entry in the list below.
system: 3T3/c-erbb2; experiment: Inhibition of Cancer Cell Growth as Measured by Cell Number (Sulforhodamine B); format: cell-based; details: 48 hours exposure

{"Item Smiles": "CCOc1cc2ncc(C#N)c(Nc3ccc4c(=O)[nH][nH]c(=O)c4c3)c2cc1OCC", "Measured Target": "3T3/c-erbb2", "IC50": "> 5 µg/mL"}
{"Item Smiles": "CCOc1cc2ncc(C#N)c(Nc3ccc4c(c3)C(=O)NCC(=O)N4C)c2cc1OCC", "Measured Target": "3T3/c-erbb2", "IC50": "> 5 µg/mL"}

Now look at this entry.
Identify the reported IC50 for the following entry. COCCOc1cc2ncc(C#N)c(Nc3ccc4cn[nH]c4c3)c2cc1OCCOC
> 5 µg/mL
